Test system: SW480 cells
experimental-protocol: cells
Type: cell-based, human
condition-description: Homo sapiens, SW480, 72 h, read-out: IC50 SW480
IC50 reference
The figure you give is taken to be in nM; do not add the unit.

compound	units-text	IC50
C/C(=C\c1csc(C)n1)[C@@H]1C[C@@H]2O[C@@H]2CCC[C@H](C)[C@H](O)[C@@H](C)C(=O)C(C)(C)[C@@H](O)CC(=O)O1 [Epo A, Epothilone A]	nM	14.5

Shifting focus to the compound that follows.
What does the record list as IC50 for Cc1nc2cc([C@@H]3C[C@@H]4C[C@H]4CCC[C@H](C)[C@H](O)[C@@H](C)C(=O)C(C)(C)CCC(=O)O3)ccc2n1CCO [compound 1] ?
17.6
